Taken from paper PMC6637425.

Molecular target: UniProt Q9Y5Z0
Sequence (Q9Y5Z0 63-518): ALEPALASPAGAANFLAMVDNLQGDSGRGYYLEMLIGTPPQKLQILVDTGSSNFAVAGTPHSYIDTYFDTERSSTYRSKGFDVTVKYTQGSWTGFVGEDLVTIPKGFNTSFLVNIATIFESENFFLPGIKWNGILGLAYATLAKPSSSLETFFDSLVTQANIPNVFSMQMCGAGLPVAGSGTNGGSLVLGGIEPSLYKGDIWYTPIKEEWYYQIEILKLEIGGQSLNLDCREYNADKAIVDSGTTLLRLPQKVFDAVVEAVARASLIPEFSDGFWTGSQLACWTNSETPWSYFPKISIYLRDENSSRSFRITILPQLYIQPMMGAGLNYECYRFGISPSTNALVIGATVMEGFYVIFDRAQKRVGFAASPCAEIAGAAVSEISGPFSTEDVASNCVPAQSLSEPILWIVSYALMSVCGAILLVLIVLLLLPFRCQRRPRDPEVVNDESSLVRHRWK
Test: BACE2 enzyme inhibition, Ki from kinetic data under tight-binding conditions
Type: biochemical
Settings: Ki (nM) BACE2, Table 2
Ki listing for selected compounds.
Your answer is read as nM, so omit the unit and give the number.

- COMPOUND: "COc1cccc([C@@H](NC[C@@H](O)[C@H](Cc2ccccc2)NC(=O)c2cc(C)cc(C(=O)N(C)[C@H](C)c3ccccc3)c2)[C@H](C)O)c1 [inhibitor 3d]"
  Ki (nM): 480
- COMPOUND: "CCC[C@H](O)[C@H](NC[C@@H](O)[C@H](Cc1ccccc1)NC(=O)c1cccc(C(=O)N(C)[C@H](C)c2ccccc2)c1)c1cccc(OC)c1 [inhibitor 3e]"
  Ki (nM): 243

Then there is this compound:
-- ask Quick check: Ki of CCC[C@H](O)[C@H](NC[C@@H](O)[C@H](Cc1ccccc1)NC(=O)c1cc(C)cc(C(=O)N(C)[C@H](C)c2ccccc2)c1)c1ccccc1 [inhibitor 3h] ?
-- reply 905
